Please go through the items and note down their pIC50.
- test system: Chk1 (Homo sapiens)
- Sequence (O14757 1-476): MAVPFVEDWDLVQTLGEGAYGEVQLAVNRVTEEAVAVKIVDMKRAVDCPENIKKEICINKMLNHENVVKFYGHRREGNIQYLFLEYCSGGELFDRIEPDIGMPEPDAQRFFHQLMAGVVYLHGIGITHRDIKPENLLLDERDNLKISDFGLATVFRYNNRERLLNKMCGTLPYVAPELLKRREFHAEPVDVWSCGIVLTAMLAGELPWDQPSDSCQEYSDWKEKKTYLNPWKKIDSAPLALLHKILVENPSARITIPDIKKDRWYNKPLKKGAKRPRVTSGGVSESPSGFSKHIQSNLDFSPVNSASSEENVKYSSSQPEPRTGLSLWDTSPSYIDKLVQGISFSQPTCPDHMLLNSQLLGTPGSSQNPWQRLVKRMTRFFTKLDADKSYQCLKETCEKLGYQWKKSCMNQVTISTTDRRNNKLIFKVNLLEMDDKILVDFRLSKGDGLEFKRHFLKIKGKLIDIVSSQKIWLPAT
- experimental details: Chk1 kinase assay, phosphorylation of Chktide (33P-ATP filtration)
- Format: biochemical
- applied conditions: Table 3; 0.01 mM ATP; read-out: Chk1 IC50
Note on units: pIC50 is unitless, being -log10 of a concentration expressed in mol/L.

For reference, reported pIC50 for `Cc1ccc(-c2cc(Nc3ccc(C(N)=O)cc3)nc3ncnn23)cc1` stands at 4.58

For reference, reported pIC50 for `COc1ccc(OC)c(Cc2cc(Nc3ccc(C(N)=O)cc3)nc3ncnn23)c1` stands at 3.97

For reference, reported pIC50 for `Cc1cccc(-c2cc(Nc3ccc(N4CCN(C)CC4)cc3)nc3ncnn23)c1` stands at 5.17

For reference, reported pIC50 for `NC(=O)c1ccc(Nc2cc(-c3ccccc3)n3ncnc3n2)cc1` stands at 5.01

For reference, reported pIC50 for `COc1ccc(C)cc1-c1cc(Nc2ccc(C(N)=O)cc2)nc2ncnn12` stands at 3.97

For reference, reported pIC50 for `NC(=O)c1ccc(Nc2cc(-c3cccc(F)c3)n3ncnc3n2)cc1` stands at 5.52

For reference, reported pIC50 for `NC(=O)c1cccc(Nc2cc(-c3cccc(F)c3)n3ncnc3n2)c1` stands at 4.63

For reference, reported pIC50 for `CC(C)c1cc(Nc2ccc(C(N)=O)cc2)nc2ncnn12` stands at 4.08

----------
Please go through the items and note down their pIC50.
- test system: CDK2 enzyme, complexed with cyclin A (Homo sapiens)
- experimental details: CDK2 cyclin dependent kinase assay, phosphorylation of synthetic peptide […] (33P-ATP filtration)
- Assay type: biochemical
- applied conditions: Table 1; 0.1 mM ATP
- Protocol: The assay mixture containing the inhibitor and CDK2 enzyme, complexed with cyclin A (0.4 U/ml) was mixed together in a microtiter plate in a final volume of 50 μl and incubated for 40 min at 30° C. […] The filtration plate was dried for 10 min at 65° C., scintillant added and phosphorylated peptide quantified in a scintillation counter (Trilux, PerkinElmer). […]
pIC50: −log10 of the molar value.

For reference, reported pIC50 for COc1ccc(-c2cc(Nc3cccc(Cl)c3)n3ncnc3n2)nc1 [Example 54] stands at < 3.70

For reference, reported pIC50 for CN(C)Cc1ccccc1-c1cc(Nc2cc(Cl)ccc2O)n2ncnc2n1 [Example 26] stands at < 3.70

For reference, reported pIC50 for CCOC(=O)c1ccc(Nc2cc(Cl)nc3ncnn23)cc1 [Example 53] stands at < 3.70

This collection of values is drawn from patent US20070275961A1.
